Origin of measurements: PubChem BioAssay

- test.target: Receptor tyrosine-protein kinase erbB-2 (Homo sapiens) (UniProt P04626)
- Sequence (P04626 whole entry, looked up): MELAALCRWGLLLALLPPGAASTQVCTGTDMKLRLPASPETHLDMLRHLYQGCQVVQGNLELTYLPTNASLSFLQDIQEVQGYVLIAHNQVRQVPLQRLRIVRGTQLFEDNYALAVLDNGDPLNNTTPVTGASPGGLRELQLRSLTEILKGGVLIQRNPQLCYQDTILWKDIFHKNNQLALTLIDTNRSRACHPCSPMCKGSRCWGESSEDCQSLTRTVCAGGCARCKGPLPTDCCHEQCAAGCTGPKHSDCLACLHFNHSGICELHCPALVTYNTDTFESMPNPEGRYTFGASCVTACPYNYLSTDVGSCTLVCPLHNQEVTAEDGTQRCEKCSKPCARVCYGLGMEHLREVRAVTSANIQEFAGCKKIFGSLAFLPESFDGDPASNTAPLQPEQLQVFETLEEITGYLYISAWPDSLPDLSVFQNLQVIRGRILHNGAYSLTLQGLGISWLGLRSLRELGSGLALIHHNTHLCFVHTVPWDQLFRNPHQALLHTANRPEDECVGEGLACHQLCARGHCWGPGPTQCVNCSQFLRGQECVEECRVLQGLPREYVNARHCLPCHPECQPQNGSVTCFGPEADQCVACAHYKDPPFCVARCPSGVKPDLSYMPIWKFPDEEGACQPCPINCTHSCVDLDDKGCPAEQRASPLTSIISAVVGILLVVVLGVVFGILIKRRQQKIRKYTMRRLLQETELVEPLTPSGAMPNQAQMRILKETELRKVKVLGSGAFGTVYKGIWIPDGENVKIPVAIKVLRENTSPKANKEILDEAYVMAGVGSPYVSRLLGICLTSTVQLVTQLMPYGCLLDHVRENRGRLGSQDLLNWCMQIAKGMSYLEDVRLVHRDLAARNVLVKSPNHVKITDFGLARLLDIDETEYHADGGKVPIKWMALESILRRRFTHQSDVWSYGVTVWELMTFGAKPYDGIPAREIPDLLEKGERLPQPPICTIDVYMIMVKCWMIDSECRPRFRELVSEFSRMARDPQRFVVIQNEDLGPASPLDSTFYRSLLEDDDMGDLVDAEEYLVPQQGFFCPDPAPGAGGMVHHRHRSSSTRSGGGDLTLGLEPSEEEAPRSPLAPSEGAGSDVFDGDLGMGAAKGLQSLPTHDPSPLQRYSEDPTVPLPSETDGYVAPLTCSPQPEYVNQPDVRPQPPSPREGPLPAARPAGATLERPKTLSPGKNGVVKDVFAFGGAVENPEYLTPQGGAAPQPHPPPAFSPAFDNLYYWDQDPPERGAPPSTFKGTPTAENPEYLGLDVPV
- assay.protocol: reducers of endogenous Her2 protein level, primary screen, SKBR3 breast tumor cells, AlphaScreen, ATP viability (AID 461);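 also: lower value means less Her2 protein in the cells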
- particulars: 18-24 h, at 10 µM, hits give low values
property: Her2 level (%)
Numbers only, in %.

Record Her2 level per entry; entries follow.
1. Cc1cccc(N(C)C(=O)c2cc3cc4ccc(C)cc4nc3o2)c1
2. O=C(C1=C(O)C(=O)N(Cc2ccccc2)C1c1ccncc1)c1ccco1 (stereo not given)

A:
1: 73.5; 2: 111

Record Her2 level per entry; entries follow.
1. N#Cc1ccccc1Cn1c(=O)n(Cc2ccc(C(=O)NCc3ccco3)cc2)c(=O)c2sccc21
2. CCCC(=O)Nc1ccccc1NC(=O)CN(C)S(=O)(=O)c1ccc(C)cc1

A:
[80, 114]

Record Her2 level per entry; entries follow.
1. COc1ccc(OC)c(C(=O)CSc2nc3ncccc3[nH]2)c1
2. CCNC(=O)C1CC(=O)N(Cc2ccc3c(c2)OCO3)C(=Nc2ccc(OCC)cc2)S1 (stereo not given)
3. O=C(NCc1ccc2c(c1)OCO2)c1ccc(NS(=O)(=O)c2ccc3c(c2)OCCO3)cc1
4. CCOc1ccc(N(CC(=O)NCC2CCCO2)S(=O)(=O)c2ccc(OC)c(OC)c2)cc1 (stereo not given)
5. COc1ccc2ccccc2c1CN1CCCC(CO)C1 (stereo not given)
6. CCOC(=O)CNC(=O)Cn1cnc2c(nnn2-c2cccc(Cl)c2)c1=O

A:
1. 108
2. 76
3. 84.5
4. 98.5
5. 85.5
6. 109
